Test system: U2OS
ASSAY_NOTES: fractional viability (live cells / total cells); higher = less cell death
APPLIED_CONDITIONS: 3.16 µM; 72 h
# note: boundary value 0.1 maps to No; fractional viability below it maps to Yes

q: Does the reported fractional viability of COc1cc2c(Oc3ccc(NC(=O)C4(C(=O)Nc5ccc(F)cc5)CC4)cc3F)ccnc2cc1OCCCN1CCOCC1 [Foretinib] stay below 0.1?
a: Yes

q: Next record, please: O=C(/C=C/c1cccc(S(=O)(=O)Nc2ccccc2)c1)NO [Belinostat]
a: Yes

q: Same thing, different molecule: CC(C)C[C@H](NC(=O)[C@H](Cc1ccccc1)NC(=O)c1cnccn1)B(O)O [Bortezomib]
a: Yes

q: Please answer likewise for CC(C)C[C@@H](C=O)NC(=O)[C@H](CC(C)C)NC(=O)[C@H](CC(C)C)NC(=O)OCc1ccccc1 [MG-132]
a: No

q: Thanks! And C#Cc1cccc(Nc2ncnc3cc(OCCOC)c(OCCOC)cc23)c1 [Erlotinib] ?
a: No

q: Repeat for the following molecule: Cc1cn(-c2cc(NC(=O)c3ccc(C)c(Nc4nccc(-c5cccnc5)n4)c3)cc(C(F)(F)F)c2)cn1 [Nilotinib]
a: No

---

System: U2OS
ASSAY_NOTES: drug GRADE (percent of response due to cell death) (% (0-100)); higher = more death-driven response
APPLIED_CONDITIONS: 72 h
So I've got a bunch of molecules here, and I need their drug GRADE values.
Answers are plain numbers.

Give drug GRADE for each listed item.
1. CC(=O)c1c(C)c2cnc(Nc3ccc(N4CCNCC4)cn3)nc2n(C2CCCC2)c1=O
2. CC[C@@]1(O)C(=O)OCc2c1cc1n(c2=O)Cc2cc3ccccc3nc2-1

a:
1. 3.13
2. 25.1

Kindly give each listed record's drug GRADE.
1. Cc1cc(Nc2ncc(Cl)c(Nc3ccccc3S(=O)(=O)C(C)C)n2)c(OC(C)C)cc1C1CCNCC1
2. Nc1cc(C(F)(F)F)c(-c2cc(N3CCOCC3)nc(N3CCOCC3)n2)cn1
3. CC(C)C[C@@H](C=O)NC(=O)[C@H](CC(C)C)NC(=O)[C@H](CC(C)C)NC(=O)OCc1ccccc1

a:
1: 7.14; 2: 15.2; 3: 13.5

// each molecule listed below needs its drug GRADE
1. CC[C@]1(O)C[C@@H]2CN(CCc3c([nH]c4ccccc34)[C@@](C(=O)OC)(c3cc4c(cc3OC)N(C)[C@H]3[C@@](O)(C(=O)OC)[C@H](OC(C)=O)[C@]5(CC)C=CCN6CC[C@]43[C@@H]65)C2)C1
2. CNc1cc(-c2cccc(Cl)c2Cl)nc(N)n1

a:
[3.36, 60]

---

For each record, write down the corresponding fractional viability.
Test system: U2OS
ASSAY_NOTES: fractional viability (live cells / total cells); higher = less cell death
APPLIED_CONDITIONS: 0.01 µM; 72 h
Numbers only.

COC(=O)c1ccc([C@H]2c3[nH]c4ccccc4c3C[C@H](C(=O)OC)N2C(=O)CCl)cc1: 0.983
CCOc1ccccc1-n1c(C(C)N2CCN(C(=O)COc3ccc(Cl)cc3)CC2)nc2ccccc2c1=O (centres undefined): 0.977
C=CCc1ccc(O)c(-c2ccc(O)c(CC=C)c2)c1: 0.978

--- query ---
q: Fill blank: measured fractional viability of the compound C[C@@H]1O[C@@H](O[C@H]2C[C@@H](O)[C@]3(CO)[C@H]4[C@H](O)C[C@]5(C)[C@@H](C6=CC(=O)OC6)CC[C@]5(O)[C@@H]4CC[C@]3(O)C2)[C@H](O)[C@H](O)[C@H]1O is ____.
a: 0.977

---

Tested on: U2OS
ASSAY_NOTES: fractional viability (live cells / total cells); higher = less cell death
APPLIED_CONDITIONS: 3.16 µM; 72 h
Category scheme (fractional viability): one: < 0.2; two: ≥ 0.2 and < 0.8; three: ≥ 0.8

Below, 5 compounds whose answers are already recorded.
C=CCNc1ncnc2ccc(Br)cc12 [SMER28]: three
CNc1cc(-c2cccc(Cl)c2Cl)nc(N)n1 [TH287]: two
C=CCc1ccc(O)c(-c2ccc(O)c(CC=C)c2)c1 [Honokiol]: three
CC[C@@H]1C(=O)N(C)c2cnc(Nc3ccc(C(=O)NC4CCN(C)CC4)cc3OC)nc2N1C1CCCC1 [BI2536]: one
CC1CCc2cc(F)cc3c(=O)c(C(=O)O)cn1c23 (stereo not given) [Flumequine]: three

q: Please let me know in which category the item CC[C@@]1(O)C(=O)OCc2c1cc1n(c2=O)Cc2cc3ccccc3nc2-1 [Camptothecin] belongs.
a: two

q: Can you handle Cc1cc(Nc2ccc(NC(=O)c3ccc(Nc4ccnc5ccccc45)cc3)cc2)nc(N)n1 [SGI-1027] next?
a: one

q: Input O=C(NCCCNc1nc(Nc2cccc(NC(=O)N3CCCC3)c2)ncc1I)c1cccs1 [BX795]
a: two

q: // query: O=C(Nc1ccc([N+](=O)[O-])cc1Cl)c1cc(Cl)ccc1O [Nicolsamide]
a: one

---

Kindly state normalized growth rate inhibition value for each of the entries shown.
Test system: U2OS
ASSAY_NOTES: normalized growth rate inhibition value (GR) relative to untreated cells (GR value (dimensionless, 1 = untreated growth)); higher = less growth inhibition
APPLIED_CONDITIONS: 0.100289 µM; 72 h

Batch: normalized growth rate inhibition value for all items listed.
1. Cc1nc(NC(=O)N2CCC[C@H]2C(N)=O)sc1-c1ccnc(C(C)(C)C(F)(F)F)c1 [Alpelisib]
2. CC(C)[C@@H]1NC(=O)[C@H](C)OC(=O)[C@@H](C(C)C)NC(=O)[C@@H](C(C)C)OC(=O)[C@H](C(C)C)NC(=O)[C@H](C)OC(=O)[C@@H](C(C)C)NC(=O)[C@@H](C(C)C)OC(=O)[C@H](C(C)C)NC(=O)[C@H](C)OC(=O)[C@@H](C(C)C)NC(=O)[C@@H](C(C)C)OC1=O [Valinomycin]
3. CO[C@H]1C[C@@H]2CC[C@@H](C)[C@@](O)(O2)C(=O)C(=O)N2CCCC[C@H]2C(=O)O[C@H]([C@H](C)C[C@@H]2CC[C@@H](OCCO)[C@H](OC)C2)CC(=O)[C@H](C)/C=C(\C)[C@@H](O)[C@@H](OC)C(=O)[C@H](C)C[C@H](C)/C=C/C=C/C=C/1C [Everolimus]
4. Cc1nc(Nc2ncc(C(=O)Nc3c(C)cccc3Cl)s2)cc(N2CCN(CCO)CC2)n1 [Dasatinib]

a:
[0.836, -0.0547, 0.738, 0.762]

I have 3 compounds here; please give me normalized growth rate inhibition value for each one.
1. O=C(c1cc(Cc2n[nH]c(=O)c3ccccc23)ccc1F)N1CCN(C(=O)C2CC2)CC1 [Olaparib]
2. NC(=O)Nc1cc(-c2cccc(F)c2)sc1C(=O)N[C@H]1CCCNC1 [AZD7762]
3. Cc1nc(-c2cn3c(n2)-c2ccc(-c4cnn(C(C)(C)C(N)=O)c4)cc2OCC3)n(C(C)C)n1 [Taselisib]

a:
[0.964, 0.423, 0.83]

---

System: U2OS
ASSAY_NOTES: normalized growth rate inhibition value (GR) relative to untreated cells (GR value (dimensionless, 1 = untreated growth)); higher = less growth inhibition
APPLIED_CONDITIONS: 0.0100433 µM; 72 h
normalized growth rate inhibition value vs 1: at or above is Y, below is N.

Example results:
CO[C@H]1C[C@@H]2CC[C@@H](C)[C@@](O)(O2)C(=O)C(=O)N2CCCC[C@H]2C(=O)O[C@H]([C@H](C)C[C@@H]2CC[C@@H](OCCO)[C@H](OC)C2)CC(=O)[C@H](C)/C=C(\C)[C@@H](O)[C@@H](OC)C(=O)[C@H](C)C[C@H](C)/C=C/C=C/C=C/1C: N
O=C(CCCCCCC(=O)Nc1ccccc1)NO: N
CCc1cncnc1N1CCN(Cc2nc3ccc(C(F)(F)F)cc3[nH]2)CC1: Y

q: Decide: normalized growth rate inhibition value of COc1cccc2c1C(=O)c1c(O)c3c(c(O)c1C2=O)C[C@@](O)(C(=O)CO)C[C@@H]3O[C@H]1C[C@H](N)[C@H](O)[C@H](C)O1 >= 1?
a: N

q: For COc1cc([C@@H]2c3cc4c(cc3[C@@H](O[C@@H]3O[C@@H]5CO[C@@H](C)O[C@H]5[C@H](O)[C@H]3O)[C@H]3COC(=O)[C@H]23)OCO4)cc(OC)c1O [Etoposide] then?
a: N

---

Test system: U2OS
ASSAY_NOTES: normalized growth rate inhibition value (GR) relative to untreated cells (GR value (dimensionless, 1 = untreated growth)); higher = less growth inhibition
APPLIED_CONDITIONS: 0.316912 µM; 72 h
PROPERTY_NAME: normalized growth rate inhibition value

Cc1nc(-c2cn3c(n2)-c2ccc(-c4cnn(C(C)(C)C(N)=O)c4)cc2OCC3)n(C(C)C)n1: 0.69

Provide reported normalized growth rate inhibition value for each item, in the same order as listed.
1. Cc1cc(Nc2ncc(Cl)c(Nc3ccccc3S(=O)(=O)C(C)C)n2)c(OC(C)C)cc1C1CCNCC1
2. Cc1nc(NC(=O)N2CCC[C@H]2C(N)=O)sc1-c1ccnc(C(C)(C)C(F)(F)F)c1

a:
1. 0.964
2. 0.752

Hi, could you look up normalized growth rate inhibition value for each item in my list?
1. COc1cccc2c1C(=O)c1c(O)c3c(c(O)c1C2=O)C[C@@](O)(C(=O)CO)C[C@@H]3O[C@H]1C[C@H](N)[C@H](O)[C@H](C)O1
2. CN1CCN(CCOc2cc(OC3CCOCC3)c3c(Nc4c(Cl)ccc5c4OCO5)ncnc3c2)CC1
3. CC[C@@]1(O)C(=O)OCc2c1cc1n(c2=O)Cc2cc3c(CN(C)C)c(O)ccc3nc2-1
4. O=C(CCCCCCC(=O)Nc1ccccc1)NO
5. CO[C@H]1C[C@@H]2CC[C@@H](C)[C@@](O)(O2)C(=O)C(=O)N2CCCC[C@H]2C(=O)O[C@H]([C@H](C)C[C@@H]2CC[C@@H](OCCO)[C@H](OC)C2)CC(=O)[C@H](C)/C=C(\C)[C@@H](O)[C@@H](OC)C(=O)[C@H](C)C[C@H](C)/C=C/C=C/C=C/1C
6. O=C1NC(=O)[C@@H](c2cn3c4c(cccc24)CCC3)[C@@H]1c1c[nH]c2ccccc12 [Tivantinib]

a:
[0.0197, 0.823, 0.0543, 0.396, 0.79, 0.299]

Your task in this section: give normalized growth rate inhibition value for each listed record.
1. Nc1cc(C(F)(F)F)c(-c2cc(N3CCOCC3)nc(N3CCOCC3)n2)cn1
2. Cc1c(N)nc([C@H](CC(N)=O)NC[C@H](N)C(N)=O)nc1C(=O)N[C@H](C(=O)N[C@H](C)[C@@H](O)[C@H](C)C(=O)N[C@H](C(=O)NCCc1nc(-c2nc(C(=O)NCCC[S+](C)C)cs2)cs1)[C@@H](C)O)[C@@H](OC1OC(CO)C(O)C(O)C1OC1OC(CO)C(O)C(OC(N)=O)C1O)c1cnc[nH]1 (stereo partly drawn)
3. CS(=O)(=O)N1CCN(Cc2cc3nc(-c4cccc5[nH]ncc45)nc(N4CCOCC4)c3s2)CC1
4. CCN1CCN(Cc2ccc(Nc3ncc(F)c(-c4cc(F)c5nc(C)n(C(C)C)c5c4)n3)nc2)CC1

a:
1. 0.704
2. 0.888
3. 0.842
4. 0.583
